# protocol-description: Pharmacokinetics study of RDV-N in ICR mice
# Type: in vivo
# cond: male, ICR, mouse, plasma, po, 50 mg/kg
measured-property: half-life (h)

>>> val("N#C[C@@]1(c2ccc3c(N)ncnn23)O[C@H](CO)[C@@H](O)[C@H]1O")
1.2

====

# protocol-description: Pharmacokinetics study of RDV-N in ICR mice
# Type: in vivo
# cond: male, ICR, mouse, plasma, iv, 25 mg/kg
measured-property: half-life

>>> val("N#C[C@@]1(c2ccc3c(N)ncnn23)O[C@H](CO)[C@@H](O)[C@H]1O [RDV-N]")
"1.02 h"
